Test system: MS2 coat protein
assay protocol: apparent KD of MS2 coat protein; designed switch direction (-1 OFF switch, 1 ON switch): -1; higher = weaker reporter binding
condition description: input ligand: FMN 200 uM
Listed here are sequences together with their documented apparent KD of MS2 coat protein.
Put down the number, then write its unit next to it.

Example entries begin here.
INSERT INTO assay_data (seq_string, measured_endpoint, experimental_value) VALUES
  ('AUAACAUGCUGGUGAUCAUACAUGAGGAUCACCCAUGUAACAAGCUUUUUGCUCGUCUUAUAAGAUCACCAGCAUGU [Stov1/9-A2] (Eterna round: R97, puzzle: Sensor, turn-off variant 1)', 'apparent KD of MS2 coat protein', '14.8 nM'),
  ('CGGCAAUCCUAGGAUAUGCUAGACGAAAGUCUAGCAGAAGGAGGAACAUGAGGAUCACCCAUGUGUCCUAGCCG [Eli x6 4.02] (Eterna round: R97, puzzle: Exclusion 6)', 'apparent KD of MS2 coat protein', '23.5 nM'),
  ('GAUCCUAGUGUCAGGAUAUGCGAACAAACGCCAAAGCAGAAGGGACUUGAGGAUCACCCAAGUCGCGAUGCGAC [Arbiaran] (Eterna round: R97, puzzle: Brourd''s mod of Exclusion 4)', 'apparent KD of MS2 coat protein', '257 nM');

# input Identify the measured apparent KD of MS2 coat protein of AUAAAUCAUGUAGGAUAUGCGUGGCGAAGCUAUGCAGAAGGACAUGAGGAUCACCCAUGUGCUUCCGUCUGCGUACAGACGGUA [Mat - Exclusion NG 1 - Mod of JL - D10] (Eterna round: R96, puzzle: Exclusion NG 1) for MS2 coat protein.
# output 125 nM

# input Note, next up: UGCCCGGUUAGAGGAUAUCUACUGUGACUGGGUUUUCCAAAACAUGAGGAUCACCCAUGUGACGGAGAGAAGGCUAGCCUUAAA [Anedanage] (Eterna round: R96, puzzle: Exclusion NG 2)
# output 26.8 nM

# input Note, next up: AAGCAGGUGUAGGCCGUCUACAUGAGGAUCACCCAUGUGCCUCAUCCACCCGGCACCCAAUAAAGCGGGCGCCGGGC [Teququ] (Eterna round: R96, puzzle: Sensor v2, turn-off variant)
# output 113 nM

# input Note, next up: AUUUAACAUGAGGAUCACCCAUGUGAGGAUAUGCGAGUGUAGACUUCGGUCUGAUAGAGCAGAAGGCGCAGAUA [EX1 #9] (Eterna round: R97, puzzle: Exclusion 1)
# output 48.6 nM
